Data credit: ChEMBL document CHEMBL3352340

- measuredTarget: Adenosine receptor A2a (Homo sapiens, UniProt P29274)
- Sequence (P29274 whole entry): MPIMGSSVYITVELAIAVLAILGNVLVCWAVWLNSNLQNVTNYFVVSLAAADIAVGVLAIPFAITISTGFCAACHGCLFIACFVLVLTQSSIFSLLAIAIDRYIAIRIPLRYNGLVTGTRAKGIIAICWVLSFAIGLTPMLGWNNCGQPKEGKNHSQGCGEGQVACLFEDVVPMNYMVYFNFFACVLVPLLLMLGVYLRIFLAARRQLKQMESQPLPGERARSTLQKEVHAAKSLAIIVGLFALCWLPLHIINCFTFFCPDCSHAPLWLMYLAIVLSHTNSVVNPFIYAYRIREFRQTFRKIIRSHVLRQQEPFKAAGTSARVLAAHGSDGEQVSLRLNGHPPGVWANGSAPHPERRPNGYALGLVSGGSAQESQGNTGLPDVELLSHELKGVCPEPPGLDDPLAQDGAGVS
- experimentalProtocol: Displacement of [3H]ZM241385 from human adenosine A2A receptor expressed in CHO cells at 1 uM by scintillation counting analysis relative to control
- Format: cell-based
reportedEndpoint: inhibition (%)

Known results for compounds:
{"molecularString": "COc1ccc(CCc2nc(N)c3nn(-c4ccccc4)cc3n2)cc1", "measuredTarget": "Adenosine receptor A2a (Homo sapiens, UniProt P29274)", "observedMeasurement": 13}
{"molecularString": "Nc1nc(Cc2ccc(Cl)cc2)nc2cn(-c3ccccc3)nc12", "measuredTarget": "Adenosine receptor A2a (Homo sapiens, UniProt P29274)", "observedMeasurement": 1}
{"molecularString": "C=CCOc1ccc(CCCc2nc(N)c3nn(-c4ccccc4)cc3n2)cc1", "measuredTarget": "Adenosine receptor A2a (Homo sapiens, UniProt P29274)", "observedMeasurement": 15}

[I] COc1cccc(Cc2nc(N)c3nn(-c4ccccc4)cc3n2)c1
[II] Nc1nc(Cc2ccc3c(c2)OCO3)nc2cn(-c3ccccc3)nc12
Lookup: Which one would you say has the larger inhibition value: I , or II ? When you have decided, please share the label of that item.
Found: I
(I: 14%, II: 2%)
